The reported numbers originate from paper PMC12416549.

Attribute: apparent Kd (screen)
SYSTEM_UNDER_TEST: T1, TNFR1 (Homo sapiens, UniProt P19438)
T1 chain: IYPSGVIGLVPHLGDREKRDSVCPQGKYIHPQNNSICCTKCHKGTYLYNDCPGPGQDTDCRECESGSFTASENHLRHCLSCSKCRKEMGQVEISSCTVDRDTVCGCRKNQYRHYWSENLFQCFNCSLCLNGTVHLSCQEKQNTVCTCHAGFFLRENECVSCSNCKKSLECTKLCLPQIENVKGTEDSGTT
ASSAY_NOTES: yeast display SC50

BINDER	UNITS_OF_MEASURE	apparent Kd (screen)
K62D (designed binder) MTLQELLREEALRRAEAEAFRYALELLAEKFPEQKEYLLDLAEEIESQIRSLSGVDVEDVRDFLDKEWAWVKELLAEHPAELAEVEAARAARLAELRAEVEAKVAA	nM	0.593
L41D (designed binder) MTLQELLREEALRRAEAEAFRYALELLAEKFPEQKEYLLDDAEEIESQIRSLSGVDVEDVRKFLDKEWAWVKELLAEHPAELAEVEAARAARLAELRAEVEAKVAA	nM	1.27
E9Y (designed binder) MTLQELLRYEALRRAEAEAFRYALELLAEKFPEQKEYLLDLAEEIESQIRSLSGVDVEDVRKFLDKEWAWVKELLAEHPAELAEVEAARAARLAELRAEVEAKVAA	nM	1.05
E29I (designed binder) MTLQELLREEALRRAEAEAFRYALELLAIKFPEQKEYLLDLAEEIESQIRSLSGVDVEDVRKFLDKEWAWVKELLAEHPAELAEVEAARAARLAELRAEVEAKVAA	nM	1.16
E29P (designed binder) MTLQELLREEALRRAEAEAFRYALELLAPKFPEQKEYLLDLAEEIESQIRSLSGVDVEDVRKFLDKEWAWVKELLAEHPAELAEVEAARAARLAELRAEVEAKVAA	nM	0.718
L12Y (designed binder) MTLQELLREEAYRRAEAEAFRYALELLAEKFPEQKEYLLDLAEEIESQIRSLSGVDVEDVRKFLDKEWAWVKELLAEHPAELAEVEAARAARLAELRAEVEAKVAA	nM	0.539
E73V (designed binder) MTLQELLREEALRRAEAEAFRYALELLAEKFPEQKEYLLDLAEEIESQIRSLSGVDVEDVRKFLDKEWAWVKVLLAEHPAELAEVEAARAARLAELRAEVEAKVAA	nM	1.05
Y37M (designed binder) MTLQELLREEALRRAEAEAFRYALELLAEKFPEQKEMLLDLAEEIESQIRSLSGVDVEDVRKFLDKEWAWVKELLAEHPAELAEVEAARAARLAELRAEVEAKVAA	nM	2.25
